Target: T1, TP-26 (also: biotinylated, site not given here)
T1 construct: also called TP-26 peptide
T1 peptide: FRAFAFVTFADDQIA
Assay: indirect ELISA, biotinylated 15-mer on streptavidin plate, hybridoma supernatant
Where no end group is shown, it is not given here.
measured-endpoint: binding result

- ACI-7062-404D6-Ab2 (antibody, IgG3, V domains shown, also called 404D6E11; clone 4) VH: QVTLKESGPGILQPSQTLSLTCSFSGFSLSTYGIGVGWIRQPSGKGLEWLAHIWWNDYKYYNTALKSRLTISKDTSNNRVFLKIASVDTADTATYYCARVYGNLYYFDYWGQGTTLTVSS VL: DVLMTQTPLSLPVSLGDQASISCRSSQSIVHGSGNTYLEWYLQKPGQSPKLLIYKVSNRFSGVPDRFSGSGSGTDFTLRISRVEAEDLGVYYCFQGSHVPTFGAGTKLELKR: no binding
- ACI-7062-416A11-Ab1 (antibody, IgG2a, V domains shown, also called 416A11B3; clone 18) VH: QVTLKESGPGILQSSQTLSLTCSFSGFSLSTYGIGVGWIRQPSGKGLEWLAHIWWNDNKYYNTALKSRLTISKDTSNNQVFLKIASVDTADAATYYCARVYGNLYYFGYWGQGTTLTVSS VL: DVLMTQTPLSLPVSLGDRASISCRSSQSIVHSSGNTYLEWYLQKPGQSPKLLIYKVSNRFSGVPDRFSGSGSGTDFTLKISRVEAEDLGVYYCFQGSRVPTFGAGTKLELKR: no binding
- ACI-7062-410H3-Ab1 (antibody, IgG1, V domains shown, also called 410H3B9; clone 7) VH: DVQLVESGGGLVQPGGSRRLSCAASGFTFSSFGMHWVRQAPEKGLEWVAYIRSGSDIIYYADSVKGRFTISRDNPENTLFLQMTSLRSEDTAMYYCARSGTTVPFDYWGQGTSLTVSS VL: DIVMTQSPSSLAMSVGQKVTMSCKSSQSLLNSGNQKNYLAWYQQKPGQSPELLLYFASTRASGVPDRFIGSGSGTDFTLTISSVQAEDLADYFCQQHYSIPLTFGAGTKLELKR: no binding
- ACI-7062-406E3-Ab1 (antibody, IgG2a, V domains shown, also called 406E3D5; clone 5) VH: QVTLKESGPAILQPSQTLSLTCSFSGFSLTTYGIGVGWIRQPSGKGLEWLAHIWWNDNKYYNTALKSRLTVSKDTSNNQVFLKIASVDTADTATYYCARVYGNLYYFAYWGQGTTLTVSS VL: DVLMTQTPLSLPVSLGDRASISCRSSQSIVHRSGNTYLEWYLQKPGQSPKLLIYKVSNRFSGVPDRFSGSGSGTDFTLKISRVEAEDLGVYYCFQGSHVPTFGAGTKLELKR: no binding

Now examine the next entry.
Write down binding result measured for item ACI-7062-412E12-Ab1 (antibody, IgG1, V domains shown, also called 412E12A2; clone 10) VH: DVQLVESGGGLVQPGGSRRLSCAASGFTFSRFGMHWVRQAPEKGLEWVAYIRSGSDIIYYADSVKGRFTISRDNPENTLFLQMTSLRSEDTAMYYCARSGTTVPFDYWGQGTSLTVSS VL: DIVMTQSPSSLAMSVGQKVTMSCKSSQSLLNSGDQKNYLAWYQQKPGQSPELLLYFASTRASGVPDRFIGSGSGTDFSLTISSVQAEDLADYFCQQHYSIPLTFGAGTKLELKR
no binding
